Biological target: T1, recombinant Angiotensin I converting enzyme, N-terminal catalytic site
T1 chain: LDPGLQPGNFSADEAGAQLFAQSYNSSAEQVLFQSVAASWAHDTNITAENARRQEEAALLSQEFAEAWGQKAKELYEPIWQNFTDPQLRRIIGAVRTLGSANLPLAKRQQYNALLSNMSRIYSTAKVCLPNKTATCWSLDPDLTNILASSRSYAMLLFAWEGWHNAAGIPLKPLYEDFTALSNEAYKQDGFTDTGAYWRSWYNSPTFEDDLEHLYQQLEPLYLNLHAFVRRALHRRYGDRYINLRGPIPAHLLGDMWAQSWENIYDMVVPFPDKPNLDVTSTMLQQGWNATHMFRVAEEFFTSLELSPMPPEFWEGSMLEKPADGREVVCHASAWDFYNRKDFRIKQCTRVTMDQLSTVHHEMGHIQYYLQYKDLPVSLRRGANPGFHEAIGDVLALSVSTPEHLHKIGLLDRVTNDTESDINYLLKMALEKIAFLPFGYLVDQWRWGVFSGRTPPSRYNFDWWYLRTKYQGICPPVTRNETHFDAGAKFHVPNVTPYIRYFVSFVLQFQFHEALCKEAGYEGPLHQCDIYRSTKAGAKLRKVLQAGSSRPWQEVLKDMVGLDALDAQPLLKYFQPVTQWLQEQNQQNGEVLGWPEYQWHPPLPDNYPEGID
Square brackets hold non-standard residues; d marks the D form. Ends that are not written are not given here. pGlu = O=C1CC[C@@H](C(=O)O)N1
Give measured log10(Ki) for each item. Keep answers brief.
Could you please treat all values as log10 of Ki in nM?

Some solved entries appear below for comparison.
>>> print(df.to_string())
                           binder   quantity  endpoint_result
0  [pGlu]GWAWPRPQIPP [EVASIN-12a]  log10(Ki)             1.40
1   [pGlu]GRAPHPPIPP [EVASIN-11c]  log10(Ki)             3.30
2          [pGlu]KWAP [EVASIN-5a]  log10(Ki)             2.60
3   [pGlu]GRAPGPPIPP [EVASIN-11b]  log10(Ki)             3.48

Switching to the query record.
Record [pGlu]WGRPPGPPIPP [EVASIN-12b] . Reported log10(Ki): 0.70
